target: human c-Met receptor (human, UniProt P08581 25-1390); test: cell-based or functional assay
Sequence (P08581 25-1390): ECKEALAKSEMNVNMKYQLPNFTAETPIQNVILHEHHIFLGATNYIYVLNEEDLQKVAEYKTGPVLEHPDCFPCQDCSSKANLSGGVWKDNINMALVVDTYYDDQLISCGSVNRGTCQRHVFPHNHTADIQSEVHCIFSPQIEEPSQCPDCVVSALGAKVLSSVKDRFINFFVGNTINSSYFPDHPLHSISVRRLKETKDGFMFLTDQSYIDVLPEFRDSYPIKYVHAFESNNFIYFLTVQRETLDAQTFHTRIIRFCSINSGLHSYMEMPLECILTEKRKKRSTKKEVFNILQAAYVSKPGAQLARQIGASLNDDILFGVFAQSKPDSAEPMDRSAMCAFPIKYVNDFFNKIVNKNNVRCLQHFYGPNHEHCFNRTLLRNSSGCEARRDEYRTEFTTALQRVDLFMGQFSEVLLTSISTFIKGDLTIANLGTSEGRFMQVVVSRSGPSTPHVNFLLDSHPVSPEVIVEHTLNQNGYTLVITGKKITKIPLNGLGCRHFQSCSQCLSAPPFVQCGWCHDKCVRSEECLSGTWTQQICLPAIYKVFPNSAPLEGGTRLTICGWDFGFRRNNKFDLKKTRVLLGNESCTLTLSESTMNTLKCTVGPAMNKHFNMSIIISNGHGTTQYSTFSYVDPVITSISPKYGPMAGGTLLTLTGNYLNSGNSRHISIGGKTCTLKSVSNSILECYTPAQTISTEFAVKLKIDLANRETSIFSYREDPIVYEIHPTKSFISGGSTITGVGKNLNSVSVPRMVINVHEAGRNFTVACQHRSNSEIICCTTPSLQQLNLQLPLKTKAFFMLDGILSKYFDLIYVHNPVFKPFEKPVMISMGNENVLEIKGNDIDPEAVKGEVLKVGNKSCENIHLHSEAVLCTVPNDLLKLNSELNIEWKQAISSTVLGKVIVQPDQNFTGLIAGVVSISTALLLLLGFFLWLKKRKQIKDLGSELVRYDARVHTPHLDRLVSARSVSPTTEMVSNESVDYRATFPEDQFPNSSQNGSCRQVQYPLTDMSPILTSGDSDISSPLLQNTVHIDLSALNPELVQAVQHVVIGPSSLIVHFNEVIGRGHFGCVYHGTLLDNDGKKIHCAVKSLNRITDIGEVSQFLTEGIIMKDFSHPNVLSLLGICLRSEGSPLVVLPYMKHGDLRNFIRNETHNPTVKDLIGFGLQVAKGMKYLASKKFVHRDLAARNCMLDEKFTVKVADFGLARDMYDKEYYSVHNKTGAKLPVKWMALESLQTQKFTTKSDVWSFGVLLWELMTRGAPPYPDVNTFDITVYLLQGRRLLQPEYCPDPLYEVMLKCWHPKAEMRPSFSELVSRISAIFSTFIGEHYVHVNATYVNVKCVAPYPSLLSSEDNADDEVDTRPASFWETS
endpoint: inhibition of HGF-induced proliferation of NCI-H441 cells ([3H]thymidine), FIG. 14A

Task: Record request: inhibition of HGF-induced proliferation of NCI-H441 cells ([3H]thymidine), FIG. 14A value, item [224G11] [Hz1] (antibody, V domains shown) VH: QVQLVQSGAEVKKPGASVKVSCKASGYIFTAYTMHWVRQAPGQGLEWMGWIKPNNGLANYAQKFQGRVTMTRDTSISTAYMELSRLRSDDTAVYYCARSEITTEFDYWGQGTLVTVSS VL: DIVLTQSPDSLAVSLGERATINCKSSESVDSYANSFMHWYQQKPGQPPKLLIYRASTRESGVPDRFSGSGSRTDFTLTISSLQAEDVAVYYCQQSKEDPLTFGGGTKVEIKR
Output: ~46%
